tgt: MAGL (Mus musculus)
Construct: Proteomes (mouse brain membrane fraction or cell lysates); from tissue; host or cells: mouse brain membrane fraction (or cell lysates, not specified)
Sequence (O35678 whole entry): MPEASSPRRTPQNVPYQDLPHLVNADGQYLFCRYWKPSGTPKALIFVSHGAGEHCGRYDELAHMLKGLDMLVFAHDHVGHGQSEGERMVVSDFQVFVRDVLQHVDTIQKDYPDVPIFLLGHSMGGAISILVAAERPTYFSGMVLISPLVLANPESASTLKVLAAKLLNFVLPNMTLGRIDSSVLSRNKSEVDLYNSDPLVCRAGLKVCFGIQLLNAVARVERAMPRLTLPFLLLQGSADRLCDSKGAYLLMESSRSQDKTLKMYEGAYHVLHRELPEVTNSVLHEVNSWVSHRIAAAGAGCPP
assay: In vitro competitive activity-based protein profiling (gel-based, FP-Rh or HT-01 probe)
Format: biochemical
conditions used: 10 μM inhibitor
assay endpoint: inhibition at 10 µM

Recorded results for 8 compounds are shown here.
>>> result_value("O=C(c1cnn(C(=O)N2CCN(Cc3cncnc3)CC2)c1)N1CCC1")
"< 25%"
>>> result_value("Cc1cnn(C(=O)N2CCCN(C(=O)c3ccccc3)CC2)c1")
"25 to 75%"
>>> result_value("CC(C)(C)OC(=O)N1CCCN(C(=O)n2cc(C#N)cn2)CC1")
"> 75%"
>>> result_value("CN(Cc1cccc(-c2ccncc2)c1)C(=O)n1cc(Cl)cn1")
"> 75%"
>>> result_value("O=C(c1cnn(C(=O)N2CCN(C(c3ccc(Cl)cc3)c3ccc(Cl)cc3)CC2)c1)N1CCCCC1")
"> 75%"
>>> result_value("Cc1cnn(C(=O)NCCCCCc2ccccc2)c1")
"< 25%"
>>> result_value("Cc1cnn(C(=O)N2CCCN(Cc3ccccc3)CC2)c1")
"< 25%"
>>> result_value("Cc1cnn(C(=O)N2CCCN(C)CC2)c1")
"< 25%"

Moving on to the next compound.
Task: Entry N#Cc1cnn(C(=O)N2CCN(Cc3ccc4ccccc4c3)CC2)c1 needs its inhibition at 10 µM filled in; supply it.
Result: > 75%

Just for reference, patent US10093630B2 is where these values come from.
